B1: LINE1-full (parent)
chain: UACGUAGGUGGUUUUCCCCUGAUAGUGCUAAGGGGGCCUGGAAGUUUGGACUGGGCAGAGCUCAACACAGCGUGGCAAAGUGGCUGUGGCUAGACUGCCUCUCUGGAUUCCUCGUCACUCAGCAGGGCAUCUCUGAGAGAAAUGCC

Variants of: B1
Procedure Details: self-cleavage, relative activity (ratio to wild type); higher = more cleavage; in vitro, sequencing; the parent is a self-cleaving ribozyme
self-cleavage of 0.3 or higher: T. Under 0.3: F.

Problem: Does the reported self-cleavage for U14C A50G fall at or above the 0.3 mark?
Solution: T

Problem: Does the reported self-cleavage for G72A U143A fall at or above the 0.3 mark?
Solution: T

Problem: Does the reported self-cleavage for U85A U102C fall at or above the 0.3 mark?
Solution: F

Problem: Does the reported self-cleavage for U62C U91G fall at or above the 0.3 mark?
Solution: F

Problem: Does the reported self-cleavage for G32A U87A fall at or above the 0.3 mark?
Solution: F

Problem: Does the reported self-cleavage for U87C U109C fall at or above the 0.3 mark?
Solution: F

Problem: Does the reported self-cleavage for A69G A77U fall at or above the 0.3 mark?
Solution: T

Problem: Does the reported self-cleavage for A77G G139U fall at or above the 0.3 mark?
Solution: T

Problem: Does the reported self-cleavage for G86A U108A fall at or above the 0.3 mark?
Solution: F

Problem: Does the reported self-cleavage for G55A U115C fall at or above the 0.3 mark?
Solution: T

Problem: Does the reported self-cleavage for U15C A30G fall at or above the 0.3 mark?
Solution: T

Problem: Does the reported self-cleavage for C133U A141G fall at or above the 0.3 mark?
Solution: T

Problem: Does the reported self-cleavage for U39G fall at or above the 0.3 mark?
Solution: T

Problem: Does the reported self-cleavage for U45C A78G fall at or above the 0.3 mark?
Solution: T

Problem: Does the reported self-cleavage for G106A U115C fall at or above the 0.3 mark?
Solution: T

Problem: Does the reported self-cleavage for A24U G83A fall at or above the 0.3 mark?
Solution: T

Problem: Does the reported self-cleavage for U52G U109A fall at or above the 0.3 mark?
Solution: T

Problem: Does the reported self-cleavage for A94G U119A fall at or above the 0.3 mark?
Solution: T

Problem: Does the reported self-cleavage for C37G A94G fall at or above the 0.3 mark?
Solution: T

Problem: Does the reported self-cleavage for A65G U81C fall at or above the 0.3 mark?
Solution: F

Problem: Does the reported self-cleavage for U15C C123U fall at or above the 0.3 mark?
Solution: T

Problem: Does the reported self-cleavage for G75C fall at or above the 0.3 mark?
Solution: T

Problem: Does the reported self-cleavage for U39C U45G fall at or above the 0.3 mark?
Solution: T

Problem: Does the reported self-cleavage for U45C C61U fall at or above the 0.3 mark?
Solution: F

Problem: Does the reported self-cleavage for U39A A107U fall at or above the 0.3 mark?
Solution: T

Problem: Does the reported self-cleavage for G54A U81A fall at or above the 0.3 mark?
Solution: T

Problem: Does the reported self-cleavage for U1A U85G fall at or above the 0.3 mark?
Solution: F

Problem: Does the reported self-cleavage for U87C A136C fall at or above the 0.3 mark?
Solution: F

Problem: Does the reported self-cleavage for A43G A129G fall at or above the 0.3 mark?
Solution: T

Problem: Does the reported self-cleavage for U39C U96A fall at or above the 0.3 mark?
Solution: F

Problem: Does the reported self-cleavage for G135A A138G fall at or above the 0.3 mark?
Solution: T

Problem: Does the reported self-cleavage for A117G A136G fall at or above the 0.3 mark?
Solution: T

Problem: Does the reported self-cleavage for U91A U109C fall at or above the 0.3 mark?
Solution: T

Problem: Does the reported self-cleavage for U52A A94U fall at or above the 0.3 mark?
Solution: T

Problem: Does the reported self-cleavage for A30G A121U fall at or above the 0.3 mark?
Solution: T

Problem: Does the reported self-cleavage for U5C A24G fall at or above the 0.3 mark?
Solution: T

Problem: Does the reported self-cleavage for U39G A92G fall at or above the 0.3 mark?
Solution: F

Problem: Does the reported self-cleavage for U9C U81A fall at or above the 0.3 mark?
Solution: T

Problem: Does the reported self-cleavage for U13C U96C fall at or above the 0.3 mark?
Solution: F

Problem: Does the reported self-cleavage for A94U C133U fall at or above the 0.3 mark?
Solution: F

Problem: Does the reported self-cleavage for A50G U112A fall at or above the 0.3 mark?
Solution: T

Problem: Does the reported self-cleavage for G7A U46A fall at or above the 0.3 mark?
Solution: T

Problem: Does the reported self-cleavage for A22G fall at or above the 0.3 mark?
Solution: T

Problem: Does the reported self-cleavage for G83A U96C fall at or above the 0.3 mark?
Solution: F

Problem: Does the reported self-cleavage for U100C A138G fall at or above the 0.3 mark?
Solution: T

Problem: Does the reported self-cleavage for A2G U29G fall at or above the 0.3 mark?
Solution: T

Problem: Does the reported self-cleavage for U26G U81C fall at or above the 0.3 mark?
Solution: T

Problem: Does the reported self-cleavage for U14C C120U fall at or above the 0.3 mark?
Solution: T

Problem: Does the reported self-cleavage for U102C G114U fall at or above the 0.3 mark?
Solution: T

Problem: Does the reported self-cleavage for U96C C99U fall at or above the 0.3 mark?
Solution: F

Problem: Does the reported self-cleavage for G36A C116U fall at or above the 0.3 mark?
Solution: T

Problem: Does the reported self-cleavage for U62A C66U fall at or above the 0.3 mark?
Solution: F

Problem: Does the reported self-cleavage for U14A U102C fall at or above the 0.3 mark?
Solution: T

Problem: Does the reported self-cleavage for U134C A138U fall at or above the 0.3 mark?
Solution: T

Problem: Does the reported self-cleavage for U45C A124G fall at or above the 0.3 mark?
Solution: T

Problem: Does the reported self-cleavage for U26C U45C fall at or above the 0.3 mark?
Solution: T

Problem: Does the reported self-cleavage for U119C C123U fall at or above the 0.3 mark?
Solution: T

Problem: Does the reported self-cleavage for U1C G114C fall at or above the 0.3 mark?
Solution: T

Problem: Does the reported self-cleavage for A121C G127U fall at or above the 0.3 mark?
Solution: T

Problem: Does the reported self-cleavage for A78G G83A fall at or above the 0.3 mark?
Solution: F

Problem: Does the reported self-cleavage for G93A U109A fall at or above the 0.3 mark?
Solution: F

Problem: Does the reported self-cleavage for A24U G93A fall at or above the 0.3 mark?
Solution: F

Problem: Does the reported self-cleavage for A31G A79U fall at or above the 0.3 mark?
Solution: T

Problem: Does the reported self-cleavage for U115G U143C fall at or above the 0.3 mark?
Solution: T

Problem: Does the reported self-cleavage for U52A A92G fall at or above the 0.3 mark?
Solution: F

Problem: Does the reported self-cleavage for A69U G97C fall at or above the 0.3 mark?
Solution: F

Problem: Does the reported self-cleavage for U52A G137U fall at or above the 0.3 mark?
Solution: T

Problem: Does the reported self-cleavage for A79G C101A fall at or above the 0.3 mark?
Solution: T

Problem: Does the reported self-cleavage for U14C G93U fall at or above the 0.3 mark?
Solution: F
